type: physicochemical; conditions: aqueous phosphate buffer, pH 1.85, half-time (t1/2), pH 1.85, 37 °C
REPORTED_ENDPOINT: half-life at 150 μg/mL (h)
// units = h; emit number, no label

Give the reported value of half-life at 150 μg/mL for this record: CC(/C=C1\SC(=S)N(CC(=O)O)C1=O)=C\c1ccccc1
33.6

---

assay type: physicochemical; details: phosphate buffer, pH 10.97, half-time (t1/2), pH 10.97, 25 °C
REPORTED_ENDPOINT: half-life at 150 μg/mL (days)
// units = days; emit number, no label

Give the reported value of half-life at 150 μg/mL for this record: CC(/C=C1\SC(=S)N(CC(=O)O)C1=O)=C\c1ccccc1
18
